method description: Therapeutic index, ratio of HC10 for mouse RBC to IC50 for cytotoxicity against human MCF7 cells
Type: toxicity, cell-based
condition details: mouse RBC and MCF7 cells, read-out: TI
Non-standard residues stand in square brackets, D forms with d. Residues, ends and D or L forms follow the SMILES beside them. Nle(6-COOH) = N[C@@H](CCCCC(=O)O)C(=O)O

[
  {
    "compound": "CC(C)C[C@H](NC(=O)[C@H](CCCCN)NC(=O)[C@H](CCCCN)NC(=O)[C@H](CC(C)C)NC(=O)[C@H](CC(C)C)NC(=O)[C@H](CCCCN)NC(=O)[C@H](CCCCN)NC(=O)[C@H](CC(C)C)NC(=O)[C@H](CC(C)C)NC(=O)[C@H](CCCCN)NC(=O)[C@H](CCCCN)NC(=O)[C@H](CC(C)C)NC(=O)[C@@H](N)CC(C)C)C(=O)N[C@@H](CCCCC(=O)O)C(N)=O (H-LLKKLLKKLLKKL[Nle(6-COOH)]-NH2)",
    "selectivity ratio": 13.8
  },
  {
    "compound": "CC(C)C[C@H](NC(=O)[C@H](CC(C)C)NC(=O)[C@H](CCCCN)NC(=O)[C@H](CCC(=O)O)NC(=O)[C@H](CC(C)C)NC(=O)[C@H](CC(C)C)NC(=O)[C@H](CCCCN)NC(=O)[C@H](CCCCN)NC(=O)[C@H](CC(C)C)NC(=O)[C@H](CC(C)C)NC(=O)[C@H](CCCCN)NC(=O)[C@H](CCCCN)NC(=O)[C@H](CC(C)C)NC(=O)[C@@H](N)CC(C)C)C(N)=O (H-LLKKLLKKLLEKLL-NH2)",
    "selectivity ratio": 2.28
  },
  {
    "compound": "CC(C)C[C@H](NC(=O)[C@H](CC(C)C)NC(=O)[C@H](CCCCN)NC(=O)[C@H](CCCCN)NC(=O)[C@H](CC(C)C)NC(=O)[C@H](CC(C)C)NC(=O)[C@H](CCCCN)NC(=O)[C@H](CCCCN)NC(=O)[C@H](CC(C)C)NC(=O)[C@H](CC(C)C)NC(=O)[C@H](CCCCN)NC(=O)[C@H](CCCCN)NC(=O)[C@H](CC(C)C)NC(=O)[C@@H](N)CC(C)C)C(N)=O (H-LLKKLLKKLLKKLL-NH2)",
    "selectivity ratio": 2.27
  },
  {
    "compound": "CC(C)C[C@H](NC(=O)[C@H](CCCCN)NC(=O)[C@H](CC(C)C)NC(=O)[C@H](CC(C)C)NC(=O)[C@H](CCCCN)NC(=O)[C@H](CCCCN)NC(=O)[C@H](CC(C)C)NC(=O)[C@H](CC(C)C)NC(=O)[C@H](CCCCN)NC(=O)[C@H](CCCCN)NC(=O)[C@H](CC(C)C)NC(=O)[C@H](CC(C)C)NC(=O)[C@H](CCCCN)NC(=O)[C@H](CCCCN)NC(=O)[C@H](CC(C)C)NC(=O)[C@H](CC(C)C)NC(=O)[C@@H](N)CCCCN)C(N)=O (H-KLLKKLLKKLLKKLLKL-NH2)",
    "selectivity ratio": 0.517
  }
]
